- assay.info: Inhibition of the ATP-mediated HIV1 reverse transcriptase D67N/K70R/T215F/K219Q mutant catalyzed 3'-azido, 3'-deoxythymidine excision from AZT-terminated DNA primers
- Parameters: species or system Human immunodeficiency virus 1
Rule: pIC50 under 5 gives 0.0, otherwise 1.0.

Worked cases, answers included:
>>> print(df.to_string())
                            chemical_string  label
0        Nc1ccccc1CC(O)(P(=O)(O)O)P(=O)(O)O    0.0
1  O=P(O)(O)C(Nc1ccc(-c2ccccc2)cc1)P(=O)(O)O    0.0
2  O=P(O)(O)C(O)(Cc1ccc(Cl)c(Cl)c1)P(=O)(O)O    1.0
3   O=P(O)(O)C(O)(Cc1cccc2ccccc12)P(=O)(O)O    1.0
4  CN(CCCc1ccccc1)CCC(O)(P(=O)(O)O)P(=O)(O)O    0.0
5         O=P(O)(O)C(O)(Cc1ccccc1)P(=O)(O)O    0.0

Req: In plain terms: is recorded pIC50 at least 5 for O=P(O)(O)C(Nc1cccc(-c2ccc(F)cc2F)c1)P(=O)(O)O ?
Resp: 1.0

Req: In plain terms: is recorded pIC50 at least 5 for O=P(O)(O)C(Nc1ccc(Cc2ccccc2)cc1)P(=O)(O)O ?
Resp: 1.0

Req: In plain terms: is recorded pIC50 at least 5 for Cc1ccc(NC(P(=O)(O)O)P(=O)(O)O)cc1-c1ccccc1 ?
Resp: 1.0

----------
- assay.info: Inhibition of the ATP-mediated HIV1 reverse transcriptase D67N/K70R/T215F/K219Q mutant catalyzed 3'-azido, 3'-deoxythymidine excision from AZT-terminated DNA primers
- Set-up: species or system Human immunodeficiency virus 1
Reported log10 IC50 by item:
Hey, these are logged values: log10 of IC50, nM being the unit before logging.

These recorded examples may help you get a feel for the data.
In [3]: df
Out[3]:
                            chemical_string  result_value
0  O=P(O)(O)C(Nc1cccc(-c2ccccc2)c1)P(=O)(O)O          3.51
1  O=P(O)(O)C(Nc1cccc(-c2cc(F)cc(F)c2)c1)P(=O)(O)O          3.34
2  O=P(O)(O)C(Nc1ccc(-c2ccccc2)cc1)P(=O)(O)O          5.48
3  O=P(O)(O)C(CNc1cccc(-c2ccccc2)c1)P(=O)(O)O          4.05
4  O=P(O)(O)C(O)(Cc1cccc(-c2ccc(F)cc2)c1)P(=O)(O)O          3.28

Req: Let me know recorded log10 IC50 for O=P(O)(O)C(O)(Cc1ccc(-c2ccc(Cl)cc2)cc1)P(=O)(O)O , thanks.
Resp: 3.59

Req: Let me know recorded log10 IC50 for COCc1cccc(NC(P(=O)(O)O)P(=O)(O)O)c1 , thanks.
Resp: 3.98

Req: Let me know recorded log10 IC50 for O=P(O)(O)C(O)(Cc1ccc(-c2ccc(F)cc2)cc1)P(=O)(O)O , thanks.
Resp: 3.46

Req: Let me know recorded log10 IC50 for O=P(O)(O)C(Nc1cccc(-c2ccc(F)c(F)c2)c1)P(=O)(O)O , thanks.
Resp: 3.32

Req: Let me know recorded log10 IC50 for O=P(O)(O)C(O)(Cc1cccc(-c2ccc(Cl)cc2)c1)P(=O)(O)O , thanks.
Resp: 2.95

Req: Let me know recorded log10 IC50 for O=P(O)(O)C(O)(Cc1ccc(Cl)c(Cl)c1)P(=O)(O)O , thanks.
Resp: 2.70
